- System: CEM-SS
- Test: Effective concentration required to achieve 50% inhibition of HIV-1 multiplication in human T-4 lymphoblastoid cell line CEM-SS/LAI
- Assay type: functional, cell-based
Rule: IC50 below 60 nM gives Fulfilled, anything at or above gives Not fulfilled.

Cc1c(Sc2ccccc2)n(COCCNc2ccccc2)c(=O)[nH]c1=O    Fulfilled
Cc1c(Sc2ccccc2)n(COCCNC(=O)c2ccccc2)c(=O)[nH]c1=O    Not fulfilled
Cc1c(Sc2ccccc2)n(COCCN(c2ccccc2)c2ccccc2)c(=O)[nH]c1=O    Not fulfilled

Switching to the query record.
Query string: For this compound, is IC50 lower than 60 nM? Cc1c(Sc2ccccc2)n(COCCBr)c(=O)[nH]c1=O
Result string: Not fulfilled

###

We begin with a simple list: items and their reported IC50.
- Test system: CEM-SS
- Test: Effective concentration required to achieve 50% inhibition of HIV-1 multiplication in human T-4 lymphoblastoid cell line CEM-SS/LAI
- Type: functional, cell-based
Number in µM, nothing else.

Cc1c(Sc2ccccc2)n(C/C=C/c2cccs2)c(=O)[nH]c1=O    0.14
Cc1c(Sc2ccccc2)n(C/C=C/c2cccnc2)c(=O)[nH]c1=O    0.15
Cc1c(Sc2ccccc2)n(COCCN)c(=O)[nH]c1=O    31
Cc1c(Sc2ccccc2)n(COCCO)c(=O)[nH]c1=O    2

# next compound below
Query string: Could you share what IC50 was measured for CCc1c(Sc2ccccc2)n(C/C=C/c2cccs2)c(=O)[nH]c1=O , tested on CEM-SS?
Result string: 0.008

###

- Tested on: MT4
- Test: Effective concentration required to achieve 50% inhibition of HIV-1 multiplication in human T-4 lymphoblastoid cell line MT-4 IIIB
- Assay type: functional, cell-based
// classify(record): look up IC50 in ranges lower level (below 200 nM), middle level (200 nM to below 3000 nM), upper level (3000 nM or more)

Worked cases, answers included:
Cc1c(Sc2ccccc2)n(COCCN(c2ccccc2)c2ccccc2)c(=O)[nH]c1=O    upper level
CCc1c(Sc2ccccc2)n(C/C=C/c2ccco2)c(=O)[nH]c1=O    lower level
Cc1c(Sc2ccccc2)n(C/C=C/c2ccccc2)c(=O)[nH]c1=O    middle level
CCc1c(Sc2cc(C)cc(C)c2)n(C/C=C/c2cccs2)c(=O)[nH]c1=O    lower level

Query string: Record Cc1c(Sc2ccccc2)n(COCCI)c(=O)[nH]c1=O — which class?
Result string: upper level

Query string: What do we get for Cc1c(Sc2ccccc2)n(COCCO)c(=O)[nH]c1=O ?
Result string: upper level

Query string: Would you mind doing CCc1c(Sc2ccccc2)n(C/C=C/c2ccccc2)c(=O)[nH]c1=O as well?
Result string: lower level

###

- System: CEM-SS
- Test: Effective concentration required to achieve 50% inhibition of HIV-1 multiplication in human T-4 lymphoblastoid cell line CEM-SS/LAI
- Assay type: functional, cell-based
Metric name: IC50 (µM)
# value in µM; strip the unit string

Study these solved cases before continuing.
Cc1c(Sc2ccccc2)n(COCCN(CC#N)CC#N)c(=O)[nH]c1=O    27.5
Cc1c(Sc2ccccc2)n(C/C=C/c2ccco2)c(=O)[nH]c1=O    0.33

For the next question, use this compound.
Query string: Name the recorded IC50 for Cc1c(Sc2ccccc2)n(COCCI)c(=O)[nH]c1=O .
Result string: 2.2

###

- Tested on: MT4
- Test: Effective concentration required to achieve 50% inhibition of HIV-1 multiplication in human T-4 lymphoblastoid cell line MT-4 IIIB
- Type: functional, cell-based
The molecules listed here are annotated with their IC50.
Note: unit nM is implicit; provide only the numeric part.

CCc1c(Sc2ccccc2)n(C/C=C/c2cccs2)c(=O)[nH]c1=O    80

Query string: Item Cc1c(Sc2ccccc2)n(C/C=C/c2cccnc2)c(=O)[nH]c1=O has what recorded IC50?
Result string: 100

Query string: What do we get for CCc1c(Sc2cc(C)cc(C)c2)n(COCc2ccccc2)c(=O)[nH]c1=O ?
Result string: 3.2

###

Parameter: pIC50. Scope: all listed entries.
- Test system: CEM-SS
- Test: Effective concentration required to achieve 50% inhibition of HIV-1 multiplication in human T-4 lymphoblastoid cell line CEM-SS/LAI
- Format: functional, cell-based
Scale: pIC50 equals -log10([C]), with [C] in mol/L.

CCc1c(Sc2ccccc2)n(C/C=C/c2ccco2)c(=O)[nH]c1=O    8.10

Query string: Using the record for Cc1c(Sc2ccccc2)n(COCCSc2ccccn2)c(=O)[nH]c1=O , report its pIC50.
Result string: 6.08

Query string: Next entry: CCc1c(Sc2ccccc2)n(C/C=C/c2cc3ccccc3o2)c(=O)[nH]c1=O
Result string: 7.42

Query string: CCc1c(Sc2cc(C)cc(C)c2)n(C/C=C/c2ccco2)c(=O)[nH]c1=O , same question.
Result string: 8.00

Query string: Also, Cc1c(Sc2ccccn2)n(COCCSc2ccccc2)c(=O)[nH]c1=O please.
Result string: 6.00

Query string: Moving on to the next molecule: CCc1c(Sc2cc(C)cc(C)c2)n(C/C=C/c2ccccc2)c(=O)[nH]c1=O
Result string: 7.51

###

- System: MT4
- Test: Effective concentration required to achieve 50% inhibition of HIV-1 multiplication in human T-4 lymphoblastoid cell line MT-4 IIIB
- Format: functional, cell-based
pIC50: −log10 of the molar value.
Metric name: pIC50

Check out these entries, answers already filled in.
Cc1c(Sc2ccccc2)n(C/C=C/C2CCCCC2)c(=O)[nH]c1=O    < 6.00
Cc1c(Sc2ccccc2)n(C/C=C/c2cc3ccccc3o2)c(=O)[nH]c1=O    < 6.00
Cc1c(Sc2ccccc2)n(COCCN(C(=O)c2ccccc2)C(=O)c2ccccc2)c(=O)[nH]c1=O    < 6.00
CCc1c(Sc2ccccc2)n(C/C=C/c2cc3ccccc3o2)c(=O)[nH]c1=O    < 6.00
CCc1c(Sc2ccccc2)n(COCc2ccccc2)c(=O)[nH]c1=O    8.23

Query string: Return reported pIC50; argument: Cc1c(Sc2ccccc2)n(COCCNC(=O)CNCP(=O)(O)O)c(=O)[nH]c1=O
Result string: < 4.00

Query string: Okay, and Cc1c(Sc2ccccc2)n(COCCNc2ccccc2)c(=O)[nH]c1=O ?
Result string: 6.00

Query string: And the next one, Cc1c(Sc2ccccn2)n(COCCSc2ccccc2)c(=O)[nH]c1=O ?
Result string: < 6.00

###

In this section we review reported pIC50 values for a set of compounds.
- System: CEM-SS
- Test: Effective concentration required to achieve 50% inhibition of HIV-1 multiplication in human T-4 lymphoblastoid cell line CEM-SS/LAI
- Format: functional, cell-based
Please express pIC50 as -log10 of the molar concentration.

Query string: Looking for the measured pIC50 of Cc1c(Sc2ccccc2)n(COCc2ccccc2)c(=O)[nH]c1=O , can you help?
Result string: 7.05

Query string: Do the same for Cc1c(Sc2ccccc2)n(COCCNC(=O)CCCl)c(=O)[nH]c1=O please
Result string: 4.94

Query string: And what about the compound CCc1c(Sc2ccccc2)n(C/C=C/c2ccccc2)c(=O)[nH]c1=O ?
Result string: 7.80

Query string: # iterate: Cc1c(Sc2ccccc2)n(C/C=C/c2ccccc2)c(=O)[nH]c1=O
Result string: 6.64

Query string: Next compound: Cc1c(Sc2ccccn2)n(COCCSc2ccccn2)c(=O)[nH]c1=O
Result string: 6.36

Query string: Now the compound CCc1c(Sc2ccccc2)n(C/C=C/c2ccc([N+](=O)[O-])s2)c(=O)[nH]c1=O
Result string: 6.03

Query string: Would you mind doing CCc1c(Sc2cc(C)cc(C)c2)n(C/C=C/c2cccs2)c(=O)[nH]c1=O as well?
Result string: 7.55

###

- Test system: MT4
- Test: Effective concentration required to achieve 50% inhibition of HIV-1 multiplication in human T-4 lymphoblastoid cell line MT-4 IIIB
- Format: functional, cell-based
pIC50: −log10 of the molar value.
Metric name: pIC50

Some molecules with known pIC50 results, for comparison:
CCc1c(Sc2ccccc2)n(C/C=C/c2ccc([N+](=O)[O-])s2)c(=O)[nH]c1=O    < 6.00
Cc1c(Sc2ccccc2)n(COCCNC(=O)CCCl)c(=O)[nH]c1=O    4.40

Query string: Name the recorded pIC50 for Cc1c(Sc2ccccn2)n(COCCSc2ccccn2)c(=O)[nH]c1=O .
Result string: 5.10

Query string: Same thing, different molecule: Cc1c(Sc2ccccc2)n(COCCN(CC#N)CC#N)c(=O)[nH]c1=O
Result string: < 4.00

Query string: Input Cc1c(Sc2ccccc2)n(C/C=C/c2ccco2)c(=O)[nH]c1=O
Result string: < 6.00

Query string: Same for CCc1c(Sc2cc(C)cc(C)c2)n(C/C=C/c2ccco2)c(=O)[nH]c1=O
Result string: 7.40

Query string: Another molecule: Cc1c(Sc2ccccc2)n(COCCNC(=O)c2ccccc2)c(=O)[nH]c1=O
Result string: < 5.00

Query string: Then this molecule: Cc1c(Sc2ccccc2)n(C/C=C/c2cccs2)c(=O)[nH]c1=O
Result string: < 6.00

Query string: Note, next up: Cc1c(Sc2ccccc2)n(C/C=C/c2ccc([N+](=O)[O-])s2)c(=O)[nH]c1=O
Result string: < 6.00

Query string: Also need Cc1c(Sc2ccccc2)n(COCCN2CCOCC2)c(=O)[nH]c1=O , thanks.
Result string: < 4.00

Query string: Same question, Cc1c(Sc2ccccc2)n(COCCBr)c(=O)[nH]c1=O this time
Result string: 5.55

Query string: Follow-up item: Cc1c(Sc2ccccc2)n(COCCSc2ccccn2)c(=O)[nH]c1=O
Result string: < 6.00

Query string: Try Cc1c(Sc2ccccc2)n(COCc2ccccc2)c(=O)[nH]c1=O next.
Result string: 6.13
